Experimental target: recombinant human HDAC1 (Homo sapiens (Human))
Sequence (Q13547 whole entry): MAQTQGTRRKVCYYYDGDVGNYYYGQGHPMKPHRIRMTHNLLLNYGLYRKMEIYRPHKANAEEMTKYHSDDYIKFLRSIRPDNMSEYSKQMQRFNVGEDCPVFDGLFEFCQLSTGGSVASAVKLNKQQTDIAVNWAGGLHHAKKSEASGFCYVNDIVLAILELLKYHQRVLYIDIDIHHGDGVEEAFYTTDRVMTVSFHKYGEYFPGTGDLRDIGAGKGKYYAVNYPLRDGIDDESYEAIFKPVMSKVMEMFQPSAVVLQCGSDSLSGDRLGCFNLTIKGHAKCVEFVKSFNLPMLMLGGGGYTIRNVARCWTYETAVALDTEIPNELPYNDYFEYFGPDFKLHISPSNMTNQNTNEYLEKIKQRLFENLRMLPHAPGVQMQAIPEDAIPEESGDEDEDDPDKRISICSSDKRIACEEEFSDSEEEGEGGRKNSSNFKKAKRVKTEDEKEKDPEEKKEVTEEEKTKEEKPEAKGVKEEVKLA
Method description: Enzyme inhibitory activity assay on HDAC1
Experimental parameters: 120 minutes preincubation at 25° C.
The entries below are paired with their reported IC50.
Property name: IC50

>>> print(df.to_string())
                                   molecule                       experimental_target  property_name  endpoint_value
0  FC(F)c1nnc(-c2ccc(Cn3nnc(-c4cccs4)n3)nc2)o1  recombinant human HDAC1 (Homo sapiens (Human))           IC50        > 100 µM
1  FC(F)c1nnc(-c2ccc(Cn3cc(-c4cccs4)nn3)nc2)o1  recombinant human HDAC1 (Homo sapiens (Human))           IC50        > 100 µM
2  Fc1cc(-c2nnc(C(F)F)o2)cnc1Cn1cc(-c2ccccn2)nn1  recombinant human HDAC1 (Homo sapiens (Human))           IC50        > 100 µM
3  CC(c1ccc(-c2nnc(C(F)F)o2)cn1)n1cc(-c2ccc(N)nc2)nn1 (centres unmarked)  recombinant human HDAC1 (Homo sapiens (Human))           IC50        > 100 µM
4  Cc1ccc(-c2cn(Cc3ccc(-c4nnc(C(F)F)o4)cn3)nn2)cc1  recombinant human HDAC1 (Homo sapiens (Human))           IC50        > 100 µM

###

Experimental target: recombinant human HDAC6 (Homo sapiens (Human))
Sequence (Q9UBN7 whole entry): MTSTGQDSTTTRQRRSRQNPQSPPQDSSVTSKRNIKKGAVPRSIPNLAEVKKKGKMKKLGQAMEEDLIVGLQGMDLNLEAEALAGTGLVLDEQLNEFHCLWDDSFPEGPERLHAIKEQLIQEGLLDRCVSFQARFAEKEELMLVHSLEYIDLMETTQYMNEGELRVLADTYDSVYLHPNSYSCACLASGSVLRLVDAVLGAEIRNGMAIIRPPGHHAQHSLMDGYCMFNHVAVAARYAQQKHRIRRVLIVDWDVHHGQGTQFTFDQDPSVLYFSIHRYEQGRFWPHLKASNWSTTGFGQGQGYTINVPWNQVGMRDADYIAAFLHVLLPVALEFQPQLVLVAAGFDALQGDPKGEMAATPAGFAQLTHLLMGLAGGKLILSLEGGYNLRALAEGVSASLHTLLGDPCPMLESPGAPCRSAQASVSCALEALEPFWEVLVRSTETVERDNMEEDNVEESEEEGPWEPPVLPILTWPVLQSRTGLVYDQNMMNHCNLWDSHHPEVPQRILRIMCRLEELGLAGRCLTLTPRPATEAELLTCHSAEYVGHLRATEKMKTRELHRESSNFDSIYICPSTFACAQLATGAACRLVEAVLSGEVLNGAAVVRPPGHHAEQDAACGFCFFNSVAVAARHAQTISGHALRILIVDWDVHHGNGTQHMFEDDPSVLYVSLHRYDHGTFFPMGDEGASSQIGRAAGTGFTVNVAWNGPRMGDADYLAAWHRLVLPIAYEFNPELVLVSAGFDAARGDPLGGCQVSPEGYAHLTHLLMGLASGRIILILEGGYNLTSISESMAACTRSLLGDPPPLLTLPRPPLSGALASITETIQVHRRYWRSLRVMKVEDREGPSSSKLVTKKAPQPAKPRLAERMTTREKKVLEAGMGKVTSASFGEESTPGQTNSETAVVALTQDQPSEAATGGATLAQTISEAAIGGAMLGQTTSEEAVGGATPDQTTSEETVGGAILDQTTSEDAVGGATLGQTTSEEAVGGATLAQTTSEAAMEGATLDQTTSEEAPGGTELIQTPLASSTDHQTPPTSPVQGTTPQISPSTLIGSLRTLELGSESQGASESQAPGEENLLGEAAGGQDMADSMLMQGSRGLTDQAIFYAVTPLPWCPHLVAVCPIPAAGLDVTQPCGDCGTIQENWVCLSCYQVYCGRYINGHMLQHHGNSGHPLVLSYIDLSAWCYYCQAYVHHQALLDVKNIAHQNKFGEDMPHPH
Method description: Enzyme inhibitory activity assay on HDAC6
Experimental parameters: 30 minutes preincubation at 25° C.
pIC50: −log10 of the molar value.
Property name: pIC50

In [3]: df
Out[3]:
                                   molecule  property_name  endpoint_value
0  Fc1ccccc1-c1cn(Cc2ccc(-c3nnc(C(F)F)o3)cn2)nn1 [Compound 14-A]          pIC50            7.66
1  FC(F)c1nnc(-c2ccc(Cn3cc(-c4ccc(NC5=NCCN5)cc4)nn3)cc2)o1 [Compound 1-A]          pIC50            7.85
2  Fc1cccc(-c2cn(Cc3ccc(-c4nnc(C(F)F)o4)cn3)nn2)c1 [Compound 18-A]          pIC50            7.25
3  CC(=O)Nc1cccc(-c2cn(Cc3ccc(-c4nnc(C(F)F)o4)cc3F)nn2)c1 [Compound 12-A]          pIC50            7.24
4  Cc1ccc(-c2cn(Cc3ccc(-c4nnc(C(F)F)o4)cn3)nn2)cc1 [Compound 8-A]          pIC50            7.19
5  Nc1ccc(-c2cn(Cc3ccc(-c4nnc(C(F)F)o4)cc3)nn2)cn1 [Compound 45-A]          pIC50            7.59
6  CC(c1ccc(-c2nnc(C(F)F)o2)cn1)n1cc(-c2ccc(N)nc2)nn1 (centres unmarked) [Compound 39-A]          pIC50            7.85
7  Nc1nc2ccc(-c3cn(Cc4ccc(-c5nnc(C(F)F)o5)cc4Cl)nn3)cc2s1 [Compound 37-A]          pIC50            7.21

###

The entries below are paired with their reported IC50.
Experimental target: recombinant human HDAC1 (Homo sapiens (Human))
Method description: Enzyme inhibitory activity assay on HDAC1
Experimental parameters: 120 minutes preincubation at 25° C.
Property name: IC50

>>> print(df.to_string())
                                    compound  property_name  endpoint_value
 0  Nc1nc2ccc(-c3cn(Cc4ccc(-c5nnc(C(F)F)o5)cc4Cl)nn3)cc2s1           IC50        > 100 µM
 1  FC(F)c1nnc(-c2ccc(Cn3cc(-c4cccc5[nH]ncc45)nn3)nc2)o1           IC50        > 100 µM
 2  Fc1ccccc1-c1cn(Cc2ccc(-c3nnc(C(F)F)o3)cn2)nn1           IC50        > 100 µM
 3  Fc1cc(-c2nnc(C(F)F)o2)cnc1Cn1cc(-c2cccc3[nH]ccc23)nn1           IC50        > 100 µM
 4  Nc1nc2ccc(-c3cn(Cc4ccc(-c5nnc(C(F)F)o5)cc4)nn3)cc2s1           IC50        > 100 µM
 5  CC(=O)Nc1cccc(-c2cn(Cc3ccc(-c4nnc(C(F)F)o4)cc3F)nn2)c1           IC50        > 100 µM
 6  Nc1ccc(-c2cn(Cc3c(F)cc(-c4nnc(C(F)F)o4)cc3F)nn2)cn1           IC50        > 100 µM
 7  Cc1cccc(-c2cn(Cc3ccc(-c4nnc(C(F)F)o4)cn3)nn2)c1           IC50        > 100 µM
 8  Nc1nc2ccc(-c3cn(Cc4ccc(-c5nnc(C(F)F)o5)cc4F)nn3)cc2s1           IC50        > 100 µM
 9  Nc1nc2ccc(C3CN(Cc4ccc(C(=O)NNC(=O)C(F)F)s4)N=N3)cc2s1 (stereo not shown)           IC50        > 100 µM
10  FC(F)c1nnc(-c2ccc(Cn3cc(-c4ccccc4)nn3)nc2)o1           IC50        > 100 µM
11  Nc1nc2ccc(-c3cn(Cc4ccc(-c5nnc(C(F)F)o5)cn4)nn3)cc2s1           IC50        > 100 µM
12  FC(F)c1nnc(-c2ccc(Cn3cc(-c4ccccn4)nn3)nc2)o1           IC50        > 100 µM
13  Nc1ccc(-c2cn(Cc3ccc(-c4nnc(C(F)F)o4)cc3)nn2)cn1           IC50        > 100 µM
14  FC(F)c1nnc(-c2ccc(Cn3cc(-c4ccc5[nH]ccc5c4)nn3)nc2)o1           IC50        > 100 µM
15  Fc1cccc(-c2cn(Cc3ccc(-c4nnc(C(F)F)o4)cn3)nn2)c1           IC50        > 100 µM

###

The entries below are paired with their reported half-life at 5 µM.
System: HDAC6
Method description: Kinetic of prodrug disappearing when incubated with HDAC6 (LC-HRMS)
Type: biochemical
Experimental parameters: HDAC6 enzyme in assay buffer; HDAC6 1 μM, 5 μM compound, 25° C.; read-out: T1/2 of prodrug disappearing
Property name: half-life at 5 µM (min)

>>> print(df.to_string())
                                   compound  experimental_target  endpoint_value
0  Nc1ccc(-c2cn(Cc3c(F)cc(-c4nnc(C(F)F)o4)cc3F)nn2)cn1 [Compound 46-A]                HDAC6            22.9
1  Nc1ccc(-c2cn(Cc3c(F)cc(-c4nnc(C(F)(F)F)o4)cc3F)nn2)cn1 [Compound 42-A]                HDAC6            40.5
2  Nc1ccc(-c2cn(Cc3ccc(-c4nnc(C(F)F)o4)cc3F)nn2)cn1 [Compound 47-A]                HDAC6            29.3
3  Nc1ccc(-c2cn(Cc3ccc(-c4nnc(C(F)F)o4)cc3)nn2)cn1 [Compound 45-A]                HDAC6             113
4  Nc1ccc(-c2cn(Cc3ccc(-c4nnc(C(F)(F)F)o4)c(F)c3)nn2)cn1 [Compound 44-A]                HDAC6            11.3
5  Nc1nc2ccc(-c3cn(Cc4ccc(-c5nnc(C(F)F)o5)cc4Cl)nn3)cc2s1 [Compound 37-A]                HDAC6            74.3
6  Nc1nc2ccc(-c3cn(Cc4ccc(-c5nnc(C(F)F)o5)cc4F)nn3)cc2s1 [Compound 2-A]                HDAC6            77.5
7  Nc1nc2ccc(-c3cn(Cc4ccc(-c5nnc(C(F)F)o5)c(Cl)c4)nn3)cc2s1 [Compound 31-A]                HDAC6             129
8  Nc1ccc(-c2cn(Cc3ccc(-c4nnc(C(F)(F)F)o4)cc3F)nn2)cn1 [Compound 43-A]                HDAC6            23.1

###

Experimental target: recombinant human HDAC6 (Homo sapiens (Human))
Method description: Enzyme inhibitory activity assay on HDAC6
Experimental parameters: 30 minutes preincubation at 25° C.
pIC50: −log10 of the molar value.
The entries below are paired with their reported pIC50.
Property name: pIC50

                                    compound                       experimental_target  endpoint_value
 0  Fc1cc(-c2nnc(C(F)F)o2)cnc1Cn1cc(-c2ccccn2)nn1 [Compound 15-A]  recombinant human HDAC6 (Homo sapiens (Human))            7.00
 1  Nc1nc2ccc(-c3cn(Cc4ccc(-c5nnc(C(F)F)o5)cc4)nn3)cc2s1 [Compound 32-A]  recombinant human HDAC6 (Homo sapiens (Human))            7.59
 2  FC(F)c1nnc(-c2ccc(Cn3cc(-c4cccs4)nn3)nc2)o1 [Compound 19-A]  recombinant human HDAC6 (Homo sapiens (Human))            7.51
 3  Fc1cc(-c2nnc(C(F)F)o2)ccc1Cn1cc(-c2cccc3[nH]ccc23)nn1 [Compound 36-A]  recombinant human HDAC6 (Homo sapiens (Human))            7.27
 4  FC(F)c1nnc(-c2ccc(Cn3nnc(-c4ccccc4)n3)nc2)o1 [Compound 16-A]  recombinant human HDAC6 (Homo sapiens (Human))            7.40
 5  FC(F)c1nnc(-c2ccc(Cn3cc(-c4ccccn4)nn3)nc2)o1 [Compound 20-A]  recombinant human HDAC6 (Homo sapiens (Human))            7.22
 6  Nc1nc2ccc(-c3cn(Cc4ccc(-c5nnc(C(F)F)o5)cn4)nn3)cc2s1 [Compound 38-A]  recombinant human HDAC6 (Homo sapiens (Human))            8.10
 7  Cc1cccc(-c2cn(Cc3ccc(-c4nnc(C(F)F)o4)cn3)nn2)c1 [Compound 9-A]  recombinant human HDAC6 (Homo sapiens (Human))            7.40
 8  Fc1cc(-c2nnc(C(F)F)o2)cnc1Cn1cc(-c2cccc3[nH]ccc23)nn1 [Compound 40-A]  recombinant human HDAC6 (Homo sapiens (Human))            7.36
 9  Nc1nc2ccc(C3CN(Cc4ccc(C(=O)NNC(=O)C(F)F)s4)N=N3)cc2s1 (centres unmarked) [Compound 48-A]  recombinant human HDAC6 (Homo sapiens (Human))            8.15
10  FC(F)c1nnc(-c2ccc(Cn3cc(-c4cccc5[nH]ncc45)nn3)nc2)o1 [Compound 34-A]  recombinant human HDAC6 (Homo sapiens (Human))            7.70
11  FC(F)c1nnc(-c2ccc(Cn3nnc(-c4cccs4)n3)nc2)o1 [Compound 17-A]  recombinant human HDAC6 (Homo sapiens (Human))            7.39
12  FC(F)c1nnc(-c2ccc(Cn3cc(-c4ccccc4)nn3)nc2)o1 [Compound 13-A]  recombinant human HDAC6 (Homo sapiens (Human))            7.49
13  FC(F)c1nnc(-c2ccc(Cn3cc(-c4ccc5[nH]ccc5c4)nn3)nc2)o1 [Compound 27-A]  recombinant human HDAC6 (Homo sapiens (Human))            7.82
